Answer each item with its documented protein-bound cannabinoid quantified, Smoke.
target: albumin (BSA) (Bos taurus); experiment: Ethanolic cannabinoid solution mixed with aqueous albumin, protein-bound cannabinoid quantified (Example 2b); format: binding, bovine; settings: 100 microliters ethanolic solution + 500 microliters 5 mg/ml BSA, 30° C., 12 hours, non-adsorbed cannabinoids separated
Sequence (P02769 25-607): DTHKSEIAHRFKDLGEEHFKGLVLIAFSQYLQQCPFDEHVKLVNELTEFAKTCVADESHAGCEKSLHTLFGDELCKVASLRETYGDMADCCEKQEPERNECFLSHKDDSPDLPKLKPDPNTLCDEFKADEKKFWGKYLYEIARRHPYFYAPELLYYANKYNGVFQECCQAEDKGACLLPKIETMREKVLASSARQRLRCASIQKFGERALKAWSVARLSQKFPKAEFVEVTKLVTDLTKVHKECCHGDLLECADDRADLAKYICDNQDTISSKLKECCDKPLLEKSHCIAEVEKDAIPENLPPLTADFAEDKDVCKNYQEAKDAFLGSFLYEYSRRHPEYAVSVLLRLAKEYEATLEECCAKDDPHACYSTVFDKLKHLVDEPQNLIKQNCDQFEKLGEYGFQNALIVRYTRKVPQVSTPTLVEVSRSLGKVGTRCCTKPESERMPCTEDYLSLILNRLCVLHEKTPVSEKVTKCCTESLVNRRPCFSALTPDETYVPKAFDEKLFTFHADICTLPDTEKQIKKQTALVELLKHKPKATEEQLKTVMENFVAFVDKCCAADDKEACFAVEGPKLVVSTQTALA
Format: numeric value only, no unit, no commentary.

Task: Output measured protein-bound cannabinoid quantified, Smoke for this item: CCCCCc1cc(O)c2c(c1)OC(C)(C)[C@@H]1CCC(C)=C[C@@H]21 [THC, tetrahydrocannabinol, reference compound]
Result: 121.38

Task: Output measured protein-bound cannabinoid quantified, Smoke for this item: C=C(C)[C@@H]1CCC(C)=C[C@H]1c1c(O)cc(CCCCC)cc1O [CBD, cannabidiol, reference compound]
Result: 0

Task: Output measured protein-bound cannabinoid quantified, Smoke for this item: CCCCCc1cc(O)c2c(c1)OC(C)(CCC=C(C)C)C=C2 (stereo not shown) [CBC, cannabichromene]
Result: 2.13

Task: Output measured protein-bound cannabinoid quantified, Smoke for this item: CCCCCc1cc(O)c(C/C=C(\C)CCC=C(C)C)c(O)c1C(=O)O [CBGA, cannabigerolic acid]
Result: 0.58
